Ok so here's the combined literature set: IC50 for Nitric oxide synthase, inducible (Mus musculus, UniProt P29477).
Biological target: Nitric oxide synthase, inducible (Mus musculus, UniProt P29477)
Sequence (P29477 whole entry): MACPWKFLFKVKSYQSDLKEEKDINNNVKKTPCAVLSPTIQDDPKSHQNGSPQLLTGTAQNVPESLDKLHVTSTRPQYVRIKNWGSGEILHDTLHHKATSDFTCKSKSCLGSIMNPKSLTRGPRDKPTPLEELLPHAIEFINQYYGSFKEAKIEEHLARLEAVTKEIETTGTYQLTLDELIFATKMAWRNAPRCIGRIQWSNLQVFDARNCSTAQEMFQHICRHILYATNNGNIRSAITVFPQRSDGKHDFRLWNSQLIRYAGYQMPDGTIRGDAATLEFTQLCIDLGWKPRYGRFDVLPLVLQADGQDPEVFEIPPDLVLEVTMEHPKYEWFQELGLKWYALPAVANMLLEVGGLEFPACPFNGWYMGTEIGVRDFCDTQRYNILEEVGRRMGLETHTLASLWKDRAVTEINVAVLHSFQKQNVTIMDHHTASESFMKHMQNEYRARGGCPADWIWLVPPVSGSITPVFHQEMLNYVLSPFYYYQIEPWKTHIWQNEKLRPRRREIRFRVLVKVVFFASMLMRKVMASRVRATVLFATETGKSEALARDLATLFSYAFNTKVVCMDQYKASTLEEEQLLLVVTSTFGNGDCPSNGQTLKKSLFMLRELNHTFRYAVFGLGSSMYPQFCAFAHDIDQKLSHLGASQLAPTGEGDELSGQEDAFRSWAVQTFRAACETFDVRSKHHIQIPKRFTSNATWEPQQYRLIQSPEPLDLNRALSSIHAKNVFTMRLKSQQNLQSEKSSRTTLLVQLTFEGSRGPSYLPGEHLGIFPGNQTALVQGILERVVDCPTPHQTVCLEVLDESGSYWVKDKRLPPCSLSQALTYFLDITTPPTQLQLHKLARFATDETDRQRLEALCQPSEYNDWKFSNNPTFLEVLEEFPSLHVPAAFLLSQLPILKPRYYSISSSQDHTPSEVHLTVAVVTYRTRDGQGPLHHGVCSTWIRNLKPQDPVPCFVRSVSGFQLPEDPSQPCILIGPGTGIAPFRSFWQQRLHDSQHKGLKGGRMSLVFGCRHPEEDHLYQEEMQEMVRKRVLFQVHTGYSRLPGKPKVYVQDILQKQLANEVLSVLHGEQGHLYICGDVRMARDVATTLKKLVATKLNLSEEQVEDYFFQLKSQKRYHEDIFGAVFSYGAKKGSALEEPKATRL
reportedMetric: IC50 (µM)

Consider the reported IC50 for these molecules:
> print(dat)
                                    molecule                              testedsystem  unitslabel  observed
 1               CCCCC[C@@H]1N=C(N)O[C@@H]1C  Nitric oxide synthase, inducible (Mus musculus, UniProt P29477)          µM      0.23
 2                   C[C@@H]1N=C(N)O[C@@H]1C  Nitric oxide synthase, inducible (Mus musculus, UniProt P29477)          µM      0.15
 3           CC1COC(N)=N1 (stereo not given)  Nitric oxide synthase, inducible (Mus musculus, UniProt P29477)          µM       1.5
 4  O=C(O)[C@@H]1C=C[C@@H]2C[C@H]3[C@H](Cc4ccc5c(c4)OCO5)[C@H]4C=C[C@@H]1[C@@H]2[C@H]43 (relative stereo)  Nitric oxide synthase, inducible (Mus musculus, UniProt P29477)          µM      42.3
 5          CCC1COC(N)=N1 (stereo not given)  Nitric oxide synthase, inducible (Mus musculus, UniProt P29477)          µM       1.6
 6  CC(C)CNC(=O)[C@H]1[C@H]2C=C[C@@H]3[C@@H]1C[C@H]1[C@H](CCCc4ccc5c(c4)OCO5)[C@@H]2[C@@H]31 (relative stereo)  Nitric oxide synthase, inducible (Mus musculus, UniProt P29477)          µM      16.4
 7           CC1CN=C(N)O1 (stereo not given)  Nitric oxide synthase, inducible (Mus musculus, UniProt P29477)          µM     0.074
 8                         Cc1nccn1Cc1ccncc1  Nitric oxide synthase, inducible (Mus musculus, UniProt P29477)          µM        12
 9                    CC[C@H]1OC(N)=N[C@H]1C  Nitric oxide synthase, inducible (Mus musculus, UniProt P29477)          µM      0.16
10  O=c1cc(Cn2c(C3CCC3)nc3nccnc32)c2ccc(F)c(F)c2[nH]1  Nitric oxide synthase, inducible (Mus musculus, UniProt P29477)          µM       0.5

(a) CCC[C@@H]1N=C(N)O[C@@H]1CCC
(b) CC[C@@H]1N=C(N)O[C@H]1C
(c) CC(=N)NC(c1ccccc1)c1ccccc1
(d) CCC[C@@H]1N=C(N)O[C@H]1CCC
(e) CC(=N)N[C@@H](C)c1ccccc1
Hey, quick one: sort these by IC50, low to high? Put the labels in the requested order and write them down.
b, e, d, a, c
(b: 0.17 µM, e: 0.45 µM, d: 2.5 µM, a: 6.8 µM, c: 30 µM)
